Reported values of IC50 for individual entries
target: recombinant human QC (Homo sapiens); construct: His6 (N); test: Assay 4 - QC potency, mass spectrometry-based enzymatic potency assay; conditions: mass spectrometry read-out; read-out: QC Pot. Assay No. 4
Sequence (Q16769 29-361): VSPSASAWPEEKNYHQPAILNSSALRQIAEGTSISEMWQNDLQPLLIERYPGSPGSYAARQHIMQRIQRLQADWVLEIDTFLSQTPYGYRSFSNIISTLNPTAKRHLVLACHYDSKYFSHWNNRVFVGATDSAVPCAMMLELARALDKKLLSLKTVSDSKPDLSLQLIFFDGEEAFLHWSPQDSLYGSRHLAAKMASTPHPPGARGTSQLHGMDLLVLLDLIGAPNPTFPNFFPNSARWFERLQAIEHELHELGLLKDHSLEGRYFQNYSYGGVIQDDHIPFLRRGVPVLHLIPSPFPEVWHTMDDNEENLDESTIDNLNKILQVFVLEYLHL

Completed entries (count: 10):
Cc1c2c(nn1C)C(=O)N(c1ccc3[nH]cnc3c1)C2c1ccc(N2CCS(=O)(=O)CC2)cc1 (stereo not shown) = < 25 nM
Cc1c2c(nn1C)C(=O)N(c1ccc3[nH]cnc3c1)C2c1ccc(-c2ccccn2)cc1 (stereo not shown) = 25 to 100 nM
CCCOc1ccc(C2c3c(nn(C)c3C)C(=O)N2c2ccc3[nH]cnc3c2)c(C)c1 (stereo not shown) = 100 to 5000 nM
Cc1c2c(nn1C)C(=O)N(c1ccc3[nH]cnc3c1)C2c1ccc2nsnc2c1 (stereo not shown) = 25 to 100 nM
Cc1c2c(nn1C)C(=O)N(c1ccc3[nH]cnc3c1)C2c1cc(F)cc(F)c1F (stereo not shown) = 25 to 100 nM
CCCOc1ccc(C2c3c(nn(CC4CC4)c3C)C(=O)N2c2ccc3[nH]cnc3c2)cc1 (stereo not shown) = 100 to 5000 nM
Cc1c2c(nn1C)C(=O)N(c1ccc3[nH]cnc3c1)C2c1ccc(OCC(C)(F)F)c(F)c1F (stereo not shown) = < 25 nM
CCCOc1ccc(C2c3c(nn(C)c3C3CC3)C(=O)N2c2ccc3[nH]cnc3c2)cc1 (stereo not shown) = 100 to 5000 nM
CCCOc1ccc(C2c3c(nn(CC)c3C)C(=O)N2c2ccc3[nH]cnc3c2)cc1 (stereo not shown) = 100 to 5000 nM
CCCOc1ccc(C2c3c(nn(COC)c3C)C(=O)N2c2ccc3[nH]cnc3c2)cc1 (stereo not shown) = 100 to 5000 nM

Lookup result for CCCOc1ccc(C2c3c(nn(C)c3CC)C(=O)N2c2ccc3[nH]cnc3c2)cc1 (stereo not shown) ; measured IC50: 25 to 100 nM

Lookup result for Cc1c2c(nn1C)C(=O)N(c1ccc3[nH]cnc3c1)C2c1ccc(Oc2cnn(C)c2)cc1 (stereo not shown) ; measured IC50: 25 to 100 nM

Lookup result for Cc1c2c(nn1C)C(=O)N(c1ccc3[nH]cnc3c1)C2c1ccc(N2CCCCC2=O)cc1 (stereo not shown) ; measured IC50: 25 to 100 nM

###

target: human isoQC (S53-L382) (Homo sapiens, UniProt Q9NXS2); construct: enzymatically active region of human isoQC (S53-L382; see, e.g., Huang et al., 2011); GST-Enterokinase site (N, cleaved yes); made in house; host or cells: E. coli; test: Assay 3 - isoQC potency, fluorescent enzymatic assay; type: biochemical; settings: fluorescent read-out; read-out: isoQc Pot. Assay No. 3
Sequence (Q9NXS2 53-382): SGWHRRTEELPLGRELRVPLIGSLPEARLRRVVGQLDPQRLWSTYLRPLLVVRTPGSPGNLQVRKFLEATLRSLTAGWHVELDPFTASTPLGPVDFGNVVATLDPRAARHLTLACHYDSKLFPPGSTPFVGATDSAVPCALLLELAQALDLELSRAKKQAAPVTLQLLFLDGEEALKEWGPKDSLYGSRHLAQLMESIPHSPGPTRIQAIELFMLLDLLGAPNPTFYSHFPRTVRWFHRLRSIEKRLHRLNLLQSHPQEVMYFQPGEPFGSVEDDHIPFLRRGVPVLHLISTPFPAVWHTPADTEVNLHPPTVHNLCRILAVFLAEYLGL
readout_label: IC50

Completed entries (count: 7):
Cc1[nH]nc2c1C(c1ccc(N3CCC(F)(F)C3)c(F)c1F)N(c1ccc3[nH]cnc3c1)C2=O (centres unmarked) [FRPPO-161] = 25 to 100 nM
Cc1nn(C)c2c1C(c1ccc(-c3cnn(C(F)(F)F)c3)cc1F)N(c1ccc3[nH]cnc3c1)C2=O (centres unmarked) [FRPPO-165] = 25 to 100 nM
O=C1c2[nH]ncc2C(c2ccc(N3CCC(F)(F)C3)cc2F)N1c1ccc2[nH]cnc2c1 (centres unmarked) [FRPPO-171] = 100 to 5000 nM
Cc1noc2c1C(c1ccc(-c3cnn(C(F)(F)F)c3)cc1F)N(c1ccc3[nH]cnc3c1)C2=O (centres unmarked) [FRPPO-176] = 25 to 100 nM
Cc1nn(C)c2c1C(c1ccc(-c3cnc(C(F)(F)F)s3)cc1F)N(c1ccc3[nH]cnc3c1)C2=O (centres unmarked) [FRPPO-164] = 100 to 5000 nM
COc1n[nH]c2c1C(c1ccc(N3CCC(F)(F)C3)cc1F)N(c1ccc3[nH]cnc3c1)C2=O (centres unmarked) [FRPPO-173] = 25 to 100 nM
Cc1nn(C)c2c1C(c1ccc(-n3cc(C(F)(F)F)cn3)cc1F)N(c1ccc3[nH]cnc3c1)C2=O (centres unmarked) [FRPPO-166] = 100 to 5000 nM

Lookup result for Cc1onc2c1C(c1ccc(-c3cnn(C(F)(F)F)c3)cc1F)N(c1ccc3[nH]cnc3c1)C2=O (centres unmarked) [FRPPO-177] ; measured IC50: < 25 nM

###

target: human isoQC (S53-L382) (Homo sapiens); construct: enzymatically active region of human isoQC (S53-L382; see, e.g., Huang et al., 2011); GST-Enterokinase site (N, cleaved yes); made in house; host or cells: E. coli; assay: Assay 1 - isoQC inhibition, fluorescent enzymatic assay (single concentration); assay type: biochemical; conditions: isoQC inhibition at 250 nM test compound; read-out: isoQc Inh. Assay No. 1
readout_label: inhibition at 0.25 µM

Completed entries (count: 5):
CCCOc1ccc(C2c3c(nn(C4CCOCC4)c3C)C(=O)N2c2ccc3[nH]cnc3c2)cc1 (stereo not shown) [FRPPO-035] = > 40%
CCCOc1ccc(C2c3c(nn(C)c3C3CC3)C(=O)N2c2ccc3[nH]cnc3c2)cc1 (stereo not shown) [FRPPO-006] = > 40%
Cc1c2c(nn1C)C(=O)N(c1ccc3[nH]cnc3c1)C2c1ccc(OCC(C)(F)F)c(F)c1F (stereo not shown) [FRPPO-019] = > 40%
CCCOc1ccc(C2c3c(nn(CC)c3C)C(=O)N2c2ccc3[nH]cnc3c2)cc1 (stereo not shown) [FRPPO-029] = > 40%
CCCOc1ccc(C2c3c(C)nn(CC(F)(F)F)c3C(=O)N2c2ccc3[nH]cnc3c2)cc1 (stereo not shown) [FRPPO-023] = ≤ 40%

Lookup result for Cc1c2c(nn1C)C(=O)N(c1ccc3[nH]cnc3c1)C2c1ccc(N2CCC(F)(F)C2)cc1F (stereo not shown) [FRPPO-028A] ; measured inhibition at 0.25 µM: > 40%

Lookup result for CCCOc1ccc(C2c3c(C)nn(C(C)C)c3C(=O)N2c2ccc3[nH]cnc3c2)cc1 (stereo not shown) [FRPPO-021] ; measured inhibition at 0.25 µM: ≤ 40%

Lookup result for CCCOc1ccc(C2c3c(nn(CC4CC4)c3C)C(=O)N2c2ccc3[nH]cnc3c2)cc1 (stereo not shown) [FRPPO-034] ; measured inhibition at 0.25 µM: > 40%

Lookup result for CCCOc1ccc(C2c3c(nn(CC(F)(F)F)c3C)C(=O)N2c2ccc3[nH]cnc3c2)cc1 (stereo not shown) [FRPPO-037] ; measured inhibition at 0.25 µM: > 40%

Lookup result for CCCOc1ccc(C2c3c(nn(C)c3C)C(=O)N2c2ccn3ccnc3c2)cc1 (stereo not shown) [FRPPO-009] ; measured inhibition at 0.25 µM: > 40%

Lookup result for COc1ccc(C2c3c(nn(C)c3C)C(=O)N2c2ccc3[nH]cnc3c2)cc1O (stereo not shown) [FRPPO-018] ; measured inhibition at 0.25 µM: > 40%

Lookup result for Cc1c2c(nn1C)C(=O)N(c1ccc3[nH]cnc3c1)C2c1ccc2nsnc2c1 (stereo not shown) [FRPPO-020] ; measured inhibition at 0.25 µM: > 40%

Lookup result for CCCOc1ccc(C2c3c(nn(C)c3C)C(=O)N2c2ccc3[nH]cnc3c2)c(C)c1 (stereo not shown) [FRPPO-003] ; measured inhibition at 0.25 µM: > 40%

###

Reported values of inhibition at 0.25 µM for individual entries
molecular target: human isoQC (S53-L382) (Homo sapiens); construct: enzymatically active region of human isoQC (S53-L382; see, e.g., Huang et al., 2011); GST-Enterokinase site (N, cleaved yes); made in house; host or cells: E. coli; assay: Assay 1 - isoQC inhibition, fluorescent enzymatic assay (single concentration); assay type: biochemical; conditions: isoQC inhibition at 250 nM test compound; read-out: isoQc Inh. Assay No. 1

Completed entries (count: 5):
CCCOc1ccc(C2c3c(nn(CC(C)(C)F)c3C)C(=O)N2c2ccc3[nH]cnc3c2)cc1 (stereo not drawn) = > 40%
CCCOc1ccc(C2c3c(nn(CC(F)F)c3C)C(=O)N2c2ccc3[nH]cnc3c2)cc1 (stereo not drawn) = ≤ 40%
CCCOc1ccc(C2c3c(nn(C4CC4)c3C)C(=O)N2c2ccc3[nH]cnc3c2)cc1 (stereo not drawn) = > 40%
Cc1c2c(nn1C)C(=O)N(c1ccc3[nH]cnc3c1)C2c1cccc(F)c1F (stereo not drawn) = > 40%
Cc1c2c(nn1C)C(=O)N(c1ccc3[nH]cnc3c1)C2c1ccc(N2CCS(=O)(=O)CC2)cc1 (stereo not drawn) = > 40%

Lookup result for CCCOc1ccc(C2c3c(nn(C(C)C)c3C)C(=O)N2c2ccc3[nH]cnc3c2)cc1 (stereo not drawn) ; measured inhibition at 0.25 µM: > 40%
